- Test system: rodent lifetime carcinogenesis bioassay, tumor incidence TD50
- experiment_summary: carcinogenic potency in animals, long-term in vivo studies, CPDB compilation (AID 1745844)
- cond: rat; strain Fischer 344; males; by gavage; site: lung; lesion: alveolar/bronchiolar carcinoma; dosed 103 weeks; study length 105 weeks
measured_attribute: TD50 (mg/kg/day)
Give bare numbers, in mg/kg/day.

Requested field: TD50. Item: COc1c2occc2cc2ccc(=O)oc12
488

---

- Tested on: rodent lifetime carcinogenesis bioassay, tumor incidence TD50
- experiment_summary: carcinogenic potency in animals, long-term in vivo studies, CPDB compilation (AID 1745844)
- cond: rat; strain Donryu; females; in drinking water; site: esophagus; lesion: squamous-cell carcinoma; dosed 51 weeks; study length 60 weeks
measured_attribute: TD50 (mg/kg/day)
Numbers only, in mg/kg/day.

Requested field: TD50. Item: CCOC(=O)N(CC)N=O
0.54

---

- System: rodent lifetime carcinogenesis bioassay, tumor incidence TD50
- experiment_summary: carcinogenic potency in animals, long-term in vivo studies, CPDB compilation (AID 1745844)
- cond: mouse; strain CDF1; males; in feed; site: blood vessels; lesion: hemangioendothelial sarcoma; dosed 73 weeks; study length 73 weeks
measured_attribute: TD50

Requested field: TD50. Item: Cc1cc2c(nc1N)[nH]c1ccccc12
15.6 mg/kg/day

---

- Test system: rodent lifetime carcinogenesis bioassay, tumor incidence TD50
- experiment_summary: carcinogenic potency in animals, long-term in vivo studies, CPDB compilation (AID 1745844)
- cond: mouse; strain B6C3F1; males; inhaled; site: Harderian gland; lesion: adenocarcinoma; dosed 40 weeks; study length 104 weeks
measured_attribute: TD50 (mg/kg/day)
Answers are plain numbers, in mg/kg/day.

Requested field: TD50. Item: C=CC=C
531

---

- System: rodent lifetime carcinogenesis bioassay, tumor incidence TD50
- experiment_summary: carcinogenic potency in animals, long-term in vivo studies, CPDB compilation (AID 1745844)
- cond: rat; strain Fischer 344; males; by gavage; site: all sites; lesion: mesothelioma; dosed 50 weeks; study length 104 weeks
measured_attribute: TD50
For clarity, give the value followed by its unit.

- test_smiles: "CCCCCN(N=O)C(N)=O"
  TD50: "0.865 mg/kg/day"

Requested field: TD50. Item: CCCCCCN(N=O)C(N)=O
0.745 mg/kg/day

---

- System: rodent lifetime carcinogenesis bioassay, tumor incidence TD50
- experiment_summary: carcinogenic potency in animals, long-term in vivo studies, CPDB compilation (AID 1745844)
- cond: rat; strain F344/DuCrj; males; in drinking water; site: peritoneum; lesion: mesothelioma; dosed 99 weeks; study length 111 weeks
measured_attribute: TD50 (mg/kg/day)
Give bare numbers, in mg/kg/day.

Requested field: TD50. Item: CCN(N=O)C(N)=O
0.109

---

- System: rodent lifetime carcinogenesis bioassay, tumor incidence TD50
- experiment_summary: carcinogenic potency in animals, long-term in vivo studies, CPDB compilation (AID 1745844)
- cond: mouse; strain B6C3F1; males; inhaled; site: Harderian gland; lesion: adenoma; dosed 80 weeks; study length 105 weeks
measured_attribute: TD50

Requested field: TD50. Item: C=CC(=C)C
881 mg/kg/day

---

- System: rodent lifetime carcinogenesis bioassay, tumor incidence TD50
- experiment_summary: carcinogenic potency in animals, long-term in vivo studies, CPDB compilation (AID 1745844)
- cond: rat; strain Sprague-Dawley; females; in feed; site: small intestine; lesion: adenocarcinoma; dosed 40 weeks; study length 59 weeks
measured_attribute: TD50

Requested field: TD50. Item: CC(=O)Nc1nnc(-c2ccc([N+](=O)[O-])o2)s1
111 mg/kg/day

---

- Test system: rodent lifetime carcinogenesis bioassay, tumor incidence TD50
- experiment_summary: carcinogenic potency in animals, long-term in vivo studies, CPDB compilation (AID 1745844)
- cond: hamster; strain Syrian Golden; females; by gavage; site: forestomach; lesion: several types; types named in the paper; dosed 30 weeks; study length 85 weeks
measured_attribute: TD50

Requested field: TD50. Item: CCN(N=O)C(=O)NCC(C)=O
0.983 mg/kg/day

---

- Test system: rodent lifetime carcinogenesis bioassay, tumor incidence TD50
- experiment_summary: carcinogenic potency in animals, long-term in vivo studies, CPDB compilation (AID 1745844)
- cond: hamster; strain Syrian Golden; females; in drinking water; site: lung; lesion: adenoma; dosed 90 weeks; study length 90 weeks
measured_attribute: TD50 (mg/kg/day)
Answers are plain numbers, in mg/kg/day.

Requested field: TD50. Item: CCOC(N)=O
1360

---

- Test system: rodent lifetime carcinogenesis bioassay, tumor incidence TD50
- experiment_summary: carcinogenic potency in animals, long-term in vivo studies, CPDB compilation (AID 1745844)
- cond: mouse; strain Swiss albino; females; by gavage; site: mammary gland; lesion: infiltrating duct carcinoma; dosed 52 weeks; study length 52 weeks
measured_attribute: TD50

Requested field: TD50. Item: COC1=CC(=O)C[C@@H](C)[C@]12Oc1c(Cl)c(OC)cc(OC)c1C2=O
13.8 mg/kg/day

---

- System: rodent lifetime carcinogenesis bioassay, tumor incidence TD50
- experiment_summary: carcinogenic potency in animals, long-term in vivo studies, CPDB compilation (AID 1745844)
- cond: mouse; strain B6C3F1; females; in feed; site: liver; lesion: hepatocellular adenoma + hepatocellular carcinoma + neoplastic nodule; dosed 103 weeks; study length 103 weeks
measured_attribute: TD50

Please review the following examples before continuing.
- test_smiles: "CN(C)C(=O)Nc1cccc(C(F)(F)F)c1"
  TD50: "1230 mg/kg/day"
- test_smiles: "Nc1ccc2cc3ccc(N)cc3nc2c1"
  TD50: "26.4 mg/kg/day"
- test_smiles: "Brc1c(Br)c(Br)c(Oc2c(Br)c(Br)c(Br)c(Br)c2Br)c(Br)c1Br"
  TD50: "33400 mg/kg/day"

Attention now shifts to the item below.
TD50 of CNC(=O)ON=CC(C)(C)SC on rodent lifetime carcinogenesis bioassay, tumor incidence TD50?
52.7 mg/kg/day

---

- System: rodent lifetime carcinogenesis bioassay, tumor incidence TD50
- experiment_summary: carcinogenic potency in animals, long-term in vivo studies, CPDB compilation (AID 1745844)
- cond: rat; strain Fischer 344; females; inhaled; site: oral mucosa + gingiva + mammary gland + pharynx + thyroid gland + tongue; lesion: squamous-cell papilloma + carcinoma + fibroadenoma + squamous-cell carcinoma + follicular-cell adenoma + follicular-cell carcinoma; dosed 104 weeks; study length 104 weeks
measured_attribute: TD50

TD50 of C=CC(=C)Cl on rodent lifetime carcinogenesis bioassay, tumor incidence TD50?
23.3 mg/kg/day

---

- Tested on: rodent lifetime carcinogenesis bioassay, tumor incidence TD50
- experiment_summary: carcinogenic potency in animals, long-term in vivo studies, CPDB compilation (AID 1745844)
- cond: mouse; strain Swiss albino; females; in drinking water; site: forestomach; lesion: squamous-cell carcinoma; dosed 109 weeks; study length 109 weeks
measured_attribute: TD50 (mg/kg/day)
One number for each entry, in mg/kg/day.

Requested field: TD50. Item: CCCCN(N)CCCC
152

---

- Test system: rodent lifetime carcinogenesis bioassay, tumor incidence TD50
- experiment_summary: carcinogenic potency in animals, long-term in vivo studies, CPDB compilation (AID 1745844)
- cond: rat; strain Fischer 344; females; by gavage; site: forestomach; lesion: squamous-cell carcinoma; dosed 91 weeks; study length 105 weeks
measured_attribute: TD50

Requested field: TD50. Item: ClCC(Cl)CCl
7.77 mg/kg/day

---

- Tested on: rodent lifetime carcinogenesis bioassay, tumor incidence TD50
- experiment_summary: carcinogenic potency in animals, long-term in vivo studies, CPDB compilation (AID 1745844)
- cond: mouse; strain B6C3F1; males; inhaled; site: liver; lesion: hepatocellular adenoma + hepatocellular carcinoma; dosed 103 weeks; study length 104 weeks
measured_attribute: TD50

Requested field: TD50. Item: ClC(Cl)=C(Cl)Cl
190 mg/kg/day

---

- System: rodent lifetime carcinogenesis bioassay, tumor incidence TD50
- experiment_summary: carcinogenic potency in animals, long-term in vivo studies, CPDB compilation (AID 1745844)
- cond: mouse; strain BDF1; females; in drinking water; site: liver; lesion: hepatocellular carcinoma; dosed 104 weeks; study length 105 weeks
measured_attribute: TD50

Requested field: TD50. Item: C1COCCO1
404 mg/kg/day

---

- Test system: rodent lifetime carcinogenesis bioassay, tumor incidence TD50
- experiment_summary: carcinogenic potency in animals, long-term in vivo studies, CPDB compilation (AID 1745844)
- cond: mouse; strain C57BL/6; males; in feed; site: mesenteric lymph node; lesion: malignant lymphoma, histiocytic type; dosed 52 weeks; study length 69 weeks
measured_attribute: TD50 (mg/kg/day)
Numbers only, in mg/kg/day.

Requested field: TD50. Item: Cc1ccc(NC(N)=O)cc1
626

---

- System: rodent lifetime carcinogenesis bioassay, tumor incidence TD50
- experiment_summary: carcinogenic potency in animals, long-term in vivo studies, CPDB compilation (AID 1745844)
- cond: rat; strain BD VI; males; by gavage; site: thyroid gland; lesion: adenoma; dosed 104 weeks; study length 114 weeks
Calls of active or inactive are those of the source. No rule for the calls is given here.
measured_attribute: TD50

Requested field: TD50. Item: CC1(C)[C@H](C(=O)O[C@H](C#N)c2cccc(Oc3ccccc3)c2)[C@@H]1C=C(Br)Br
4.6 mg/kg/day (inactive)
